Measured %Inh, listed per entry for reference.
- System: PIK3C2B;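 further: KINOMEscan kinase panel screen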
- test settings: concentration: 1 μM, replicates: in singlicate; n = 1
measured parameter: %Inh

1) Cc1ccc(C)c(NC(=O)NC2CCN(c3ccnc(Nc4ccc(F)cc4)n3)C2)c1 (centres unmarked) | 0%
2) CCc1ccc(-c2ccc3c(c2)-c2c(cnn2C)S(=O)(=O)N3C)cc1 | 8%
3) COc1ccc(CNC(=O)NC2CCN(c3ccnc(Nc4ccc(F)cc4)n3)CC2)cc1 | 0%
4) Cl.Cl.NCC(NC(=O)c1cc(-c2ccccc2)c(-c2ccnc3[nH]ccc23)s1)c1ccccc1 (centres unmarked) | 0%
5) O=C(O)C(F)(F)F.O=C(O)C(F)(F)F.O=c1[nH]ccc2nc(N[C@@H]3CCCNC3)nc(Nc3ccc(S(=O)(=O)N4CCOCC4)cc3)c12 | 51%
6) CCn1c(-c2nonc2N)nc2c(C#CC(C)(C)O)nc(OC[C@H](N)c3ccccc3)cc21 | 0%
7) CSc1cccc2c(-c3ccncn3)c(-c3ccc(F)cc3)nn12 | 0%
8) O=C(Nc1cccc(Oc2ccc3nc(NC(=O)C4CC4)cn3n2)c1)c1ccccc1C(F)(F)F | 0%
